- Protocol: Determination of the HFP-HFPO partition coefficient (alpha) in an organic liquid: HFP/HFPO gas mixture passed through the liquid, dissolved gases measured by gas chromatography
- Type: physicochemical
- Condition notes: HFP-HFPO partition coefficient of the organic liquid, atmospheric pressure, 0°C
Each entry below lists one item and its recorded Alpha at 0°C value.
API note: the answer field is a bare number with no unit suffix.

>>> df
                                   compound  endpoint_result
0  FC(F)(F)C(F)(F)C(F)(F)C(F)(F)C1(F)OC(F)(F)C(F)(F)C1(F)F (centres unmarked) [FC-75, Perfluoro(butyl tetrahydrofurane)]              1.0

Request: Field request: Alpha at 0°C | item: "Clc1ccccc1"
Response: 2.1

Request: Field request: Alpha at 0°C | item: "COc1ccccc1"
Response: 2.5

Request: Field request: Alpha at 0°C | item: "CCCCCCCCCC"
Response: 1.3

Request: Field request: Alpha at 0°C | item: "Cc1cc(C)cc(C)c1"
Response: 2.2

---

- Protocol: Determination of the HFP-HFPO partition coefficient (alpha) in an organic liquid: HFP/HFPO gas mixture passed through the liquid, dissolved gases measured by gas chromatography
- Format: physicochemical
- Condition notes: HFP-HFPO partition coefficient of the organic liquid, atmospheric pressure, -15°C
- Method: A simple method of determining this preference (using HFP over HFPO as an example of other olefins and their epoxides covered by this invention) is to determine the partition coefficient for the system HFPO-HFP-organic liquid. […] The partition coefficient, alpha, is then calculated by the following equation: [formula] Using this method, partition coefficients were determined for a number of organic liquids at -15°C and 0°C, with the results shown below: […]
Labelling: Alpha at -15°C reported below 2 becomes yes (1); at or above becomes no (0).

Past entries and their recorded results:
>>> print(df.to_string())
                                   compound  answer_label
0                                CCCCCCCCCC       yes (1)
1                                Clc1ccccc1       yes (1)
2  FC(F)(F)C(F)(F)C(F)(F)C(F)(F)C1(F)OC(F)(F)C(F)(F)C1(F)F (centres unmarked) [FC-75, Perfluoro(butyl tetrahydrofurane)]       yes (1)
3                           Cc1cc(C)cc(C)c1        no (0)

Here is another compound to look at.
Request: Is it true that Alpha at -15°C reported for "COc1ccccc1" is less than 2?
Response: no (0)
